Test: Human HepG2 cell viability assay in 384 well format
Format: toxicity, cell-based
Set-up: dose 125 nL, time 70.5 hour; concentration not given beside the values
Details: HepG2 cells, read-out: Inhibition
readout.name: cytotoxicity at 70.5 h (%)
Just the number in %, nothing appended.

CCc1nc(CN2CCN(C(=O)c3csnn3)CC2)cs1	-0.125
Cc1sc2nc(C(F)(F)F)nc(N3CCC(NS(C)(=O)=O)CC3)c2c1C	-5.38
CCn1cnnc1CNC(=O)N1CCOCC1	-13.2
Cc1cnn(CCNCC(=O)N2CCN(c3ccccn3)CC2)c1	8.76
CN(C)CC1(O)CCN(S(=O)(=O)c2ccc(F)c(F)c2)C1 (stereo unspecified)	32.6

I would be grateful if you could share the reported cytotoxicity at 70.5 h for CC(C)c1n[nH]c(C(=O)Nc2cc[nH]n2)c1Br .
7.8

====

Test: Human HepG2 cell viability assay in 384 well format
Format: toxicity, cell-based
Design: dose 125 nL, time 70.5 hour; concentration not given beside the values
Details: HepG2 cells, read-out: Inhibition
readout.name: cytotoxicity at 70.5 h (%)
Give your result in % as a bare value.

O=C(c1cccnc1SC/C=C/c1ccccc1)N1CCOCC(O)C1 (stereo not drawn)	1.08

Would you mind telling me what cytotoxicity at 70.5 h value was observed for CC(C)n1cnnc1CN(C)C(=O)c1ccccc1N1CCOCC1 ?
9.11

Then what about the molecule CCS(=O)(=O)N(C)C1CCN(C(=O)c2cc(C)cc(C)c2)CC1 ?
-14.2

And CCN(CC)S(=O)(=O)c1ccc2c(c1)N(Cc1ccccn1)C(=O)CS2 ?
-4.62

Another molecule to look at: O=C(O)[C@@H]1CN(C(=O)CCC(F)(F)F)C[C@H]1c1ccncc1
-1.6

Same lookup for CN1C(=O)c2ccc(C(=O)N(Cc3cnn(C)c3)C3CC3)cc2C1=O , please.
-16.5

What do you have for Cc1noc(C)c1CN1CCc2ncnc(-c3ccc(F)cc3)c2CC1 ?
2.47

Then what about the molecule CC(C)N(C)Cc1cnc2n1CCN(C(=O)c1cccs1)C2 ?
-15.9

====

Assay: Human HepG2 cell viability assay in 384 well format
Assay type: toxicity, cell-based
Parameters: dose 125 nL, time 70.5 hour; concentration not given beside the values
Conditions: HepG2 cells, read-out: Inhibition
readout.name: cytotoxicity at 70.5 h (%)
Please respond with the number in % and leave the unit unwritten.

Example compounds with recorded cytotoxicity at 70.5 h:
CN(C)c1ccc(C(=O)N2CCC(c3cc4cnccc4[nH]3)CC2)cc1	-0.667
CCc1ccc(CNC(=O)NCc2nnc3n2CCC3)s1	17.1
CC(C)C(NC(=O)Cn1ccc(=O)n(C)c1=O)c1ccc(F)cc1 (centres undefined)	-13.2

GET /values?readout=cytotoxicity at 70.5 h&item= Cc1cc(C)n(CC2CN(CCOc3cccc(C#N)c3)CCO2)n1 (centres undefined)
0.061

How about this compound: C=C(C)COc1cccc(C(=O)N2CCC3(CCOCC3)CC2)c1
3.55

Do the same for Cc1cc(CN2CCN(C(=O)c3sccc3C3CC3)CC2)no1 please
-7.26

Then this compound: CC(Cn1cccn1)NC(=O)NCCN1CCc2ccccc2C1 (centres undefined)
0.199

Please give the result for Fc1ccccc1CN1CCCN(c2ncnc3[nH]ccc23)CC1 too.
-24

Try this compound next: CC(NC(=O)Nc1ccccc1CN1CCOCC1)c1nnc(N)s1 (centres undefined)
-11.9

Subsequent entry: COc1ccc(-c2ccoc2)cc1CNC1CCCC1
10.7

And then Cn1cccc1C(=O)N1CCc2ccc(=O)n(C)c2CC1 , what is it?
-6.17

Also COCCNC(=O)c1nc(NS(=O)(=O)c2ccccc2)sc1C , if possible.
-18.8

Queued: CC(=O)c1ccc(OCC(=O)NS(=O)(=O)c2cccnc2)cc1
17.6

Please give the result for O=S(=O)(NCCCn1cccn1)c1ccc2c(c1)CCC2 too.
-5.82

Same thing, different compound: CCc1nsc(N2CCn3c(nnc3-c3ccccc3)C2)n1
-4.9

Now this one: COCCC1(C(=O)O)CCCN(C(=O)c2cc(C)oc2C)C1 (centres undefined)
-15.5

Same question, Cn1cc(N2CCC(NC(=O)c3c(F)cccc3F)C2=O)cn1 (centres undefined) this time
-2.48

Consider next the compound CN(C)C(=O)CO[C@H]1CN(Cc2nccs2)[C@@H]2COC[C@H]12 in the same way.
-9.59

// repeat for Cc1ccsc1CN(C)Cc1ncccc1C(=O)O and report
-2.01

Cited source: ChEMBL document CHEMBL3507680
